measured_on: human cannabinoid CB2 receptor (Homo sapiens, UniProt P34972)
Construct: expressed in transfected cells; host or cells: Saccharomyces cerevisiae strain MMY23 (cassette integrated at the ura3 locus; chimeric Gpa1/Gαi3)
Sequence (P34972 whole entry): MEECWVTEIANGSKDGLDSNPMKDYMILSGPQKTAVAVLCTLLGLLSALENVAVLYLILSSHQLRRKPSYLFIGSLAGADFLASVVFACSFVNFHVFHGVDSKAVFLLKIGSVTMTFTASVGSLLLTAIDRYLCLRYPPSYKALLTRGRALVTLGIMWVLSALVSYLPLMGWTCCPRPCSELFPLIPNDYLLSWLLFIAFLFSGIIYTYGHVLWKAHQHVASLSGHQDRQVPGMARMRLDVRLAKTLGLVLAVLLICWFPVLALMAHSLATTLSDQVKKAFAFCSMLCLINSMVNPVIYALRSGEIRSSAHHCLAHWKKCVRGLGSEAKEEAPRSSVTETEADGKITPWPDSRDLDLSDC
assay_summary: Cannabinoid CB2 receptor agonist activity, yeast (Saccharomyces cerevisiae) cells expressing the receptor, FDGlu fluorescence
Format: cell-based
condition_label: yeast agonist assay; read-out: EC50 at the cloned human cannabinoid CB2 receptor
pEC50: −log10 of the molar value. Counter-ions that a name gives are not always drawn.
experimental_endpoint: pEC50

Please review the following examples before continuing.
- CCCCNCc1cnc(Nc2cccc(Cl)c2)nc1C(F)(F)F: > 6.52
- CN(Cc1cnc(Nc2cccc(Cl)c2)nc1C(F)(F)F)CC1CCC1: 6.00 to 6.52
- CC(NCC1CCCC1)c1cnc(Nc2cccc(Cl)c2)nc1C(F)(F)F (centres unmarked) [Example 90, formate]: > 6.52
- FC(F)(F)c1nc(Nc2cccc(Cl)c2)ncc1CNCCc1ccccc1 [Example 45, formate]: 6.00 to 6.52
- FC(F)(F)c1nc(Nc2cccc(Cl)c2)ncc1CNCC1CCC1: > 6.52

(Q) What value of pEC50 has been reported for the following compound? "CC(C)CCNCc1cnc(Nc2cccc(Cl)c2)nc1C(F)(F)F"
(A) > 6.52

(Q) Fill blank: measured pEC50 of the compound CCC(C)NCc1cnc(Nc2cccc(Cl)c2)nc1C(F)(F)F (centres unmarked) [Example 48, formate] is ____.
(A) 6.00 to 6.52

(Q) Recorded pEC50 of COCCNCc1cnc(Nc2cccc(Cl)c2)nc1C(F)(F)F [Example 17, formate] , please.
(A) > 6.52
